# System: HCC1937
# Method Notes: BrdU DNA incorporation assay
# Protocol Conditions: Homo sapiens, HCC1937, 24 h
Readout Kind: IC50

| Structure As Smiles | Reading |
| --- | --- |
| CC(=O)c1c(C)c2cnc(Nc3ccc(N4CCNCC4)cn3)nc2n(C2CCCC2)c1=O | > 1 µM |

---

# Test system: HCC1500
# Method Notes: BrdU DNA incorporation assay
# Protocol Conditions: Homo sapiens, HCC1500, 24 h

| Structure As Smiles | System Tested | Readout Unit | IC50 |
| --- | --- | --- | --- |
| CC(=O)c1c(C)c2cnc(Nc3ccc(N4CCNCC4)cn3)nc2n(C2CCCC2)c1=O | HCC1500 | nM | 10 |
